Listed compounds paired with reported pIC50
system: MCF7; assay: Antiproliferative activity against apoptosis sensitive human MCF7 cells after 72 hrs by MTT assay; format: functional, cell-based; conditions: MCF7, 72 h
pIC50: −log10 of the molar value.
assayEndpoint: pIC50

INSERT INTO assay_data (compound, assayendpoint, reported) VALUES
  ('O=C1Nc2c(F)cccc2/C1=C1/Nc2ccccc2C1=O', 'pIC50', 4.35),
  ('CC1(C)CCC2=C(O1)c1ccccc1C(=O)C2=O [LAPACHONE]', 'pIC50', 6.30),
  ('O=C1NC(=S)N/C1=C1\C(=O)Nc2ccccc21', 'pIC50', 4.06),
  ('O=C1Nc2ccc(Br)cc2/C1=C1/Cc2ccccc2C1=O', 'pIC50', 4.19),
  ('O=C1Nc2ccccc2/C1=C1/Nc2ccccc2/C1=N\O', 'pIC50', 5.04),
  ('O=C1Nc2c(Br)cccc2/C1=C1/Nc2ccccc2/C1=N\O', 'pIC50', 5.31);

* * *

assay: Antiproliferative activity against apoptosis resistant human OE21 cells after 72 hrs by MTT assay; assay type: functional, cell-based; conditions: OE21, 72 h
pIC50: −log10 of the molar value.
Label True when pIC50 >= 5; otherwise False.

INSERT INTO results (compound, categorylabel) VALUES
  ('O=C1Nc2c(F)cccc2/C1=C1/Nc2ccccc2C1=O', 'False'),
  ('O=C1NC(=S)S/C1=C1\C(=O)Nc2ccc(Br)cc21', 'False'),
  ('O=C1Nc2c(Br)cccc2/C1=C1/Nc2ccccc2/C1=N\O', 'True'),
  ('O=C1NC(=O)/C(=C2/C(=O)Nc3ccccc32)S1', 'False'),
  ('O=C1Nc2ccccc2/C1=C1/Nc2ccccc2C1=O [INDIRUBIN]', 'False'),
  ('O=C1Nc2ccccc2/C1=C1/Cc2ccccc2/C1=N\O', 'False'),
  ('CC1(C)CCC2=C(O1)c1ccccc1C(=O)C2=O [LAPACHONE]', 'True'),
  ('O=C1NC(=S)S/C1=C1\C(=O)Nc2ccccc21', 'False'),
  ('O=C1Nc2c(Cl)cccc2/C1=C1/Nc2ccccc2/C1=N\O', 'False'),
  ('O=C1Nc2ccccc2/C1=C1/Cc2ccccc2C1=O', 'False'),
  ('O=C1NC(=S)N/C1=C1\C(=O)Nc2c(Br)cccc21', 'False');

* * *

system: MCF7; assay: Antiproliferative activity against apoptosis sensitive human MCF7 cells after 72 hrs by MTT assay; format: functional, cell-based; details: MCF7, 72 h
# note: boundary value 30 µM maps to label 0; IC50 below it maps to label 1

INSERT INTO results (samplesmiles, categorylabel) VALUES
  ('O=C1Nc2c(Br)cccc2/C1=C1/Nc2ccccc2C1=O', 'label 0'),
  ('O=C1Nc2c(F)cccc2/C1=C1/Nc2ccccc2/C1=N\O', 'label 1'),
  ('O=C1Nc2ccccc2/C1=C1/Oc2ccccc2C1=O', 'label 1'),
  ('O=C1NC(=S)N/C1=C1\C(=O)Nc2c(Br)cccc21', 'label 0'),
  ('O=C1NC(=S)S/C1=C1\C(=O)Nc2ccccc21', 'label 0'),
  ('O=C1Nc2c(Cl)cccc2/C1=C1/Nc2ccccc2C1=O', 'label 0'),
  ('O=C1Nc2c(Cl)cccc2/C1=C1/Nc2ccccc2/C1=N\O', 'label 1'),
  ('O=C1Nc2ccc(Br)cc2/C1=C1/Nc2ccccc2C1=O', 'label 0'),
  ('O=C1NC(=O)/C(=C2/C(=O)Nc3ccccc32)N1', 'label 0'),
  ('O=C1Nc2ccc(Br)cc2/C1=C1/Nc2ccccc2/C1=N\O', 'label 1'),
  ('O=C1Nc2ccccc2/C1=C1/Nc2ccccc2C1=O', 'label 0');

Data origin: ChEMBL document CHEMBL3792301
